Assay: NMR binding screen, influenza A RNA promoter, Kd (AID 1637)
Details: NMR binding to influenza A RNA promoter
In all, about 3,700 compounds went through this assay and fewer than 10 were called active. A selection follows.
measuredAttribute: Kd

Worked examples, 6 compounds total:
compound=Cn1c(O)c(/C=C2\C=CC=N2)c(=O)[nH]c1=O testresult="> 4 mM (inactive)"
compound="CNC(=O)CC1Sc2ccccc2NC1=O (configuration not stated)" testresult="> 4 mM (inactive)"
compound=CCN1CCn2c1nc(N1CCOCC1)nc2=O testresult="> 4 mM (inactive)"
compound=COc1cc(C)c(S(=O)(=O)N2CCN(C)CC2)cc1C testresult="> 4 mM (inactive)"
compound=OCCCc1nc2ccc(C(F)(F)F)cc2[nH]1 testresult="> 4 mM (inactive)"
compound=COc1c(O)cc2c(c1O)[C@H]1O[C@H](CO)[C@@H](O)[C@H](O)[C@@H]1OC2=O testresult="> 4 mM (inactive)"

Item C[C@@H]1OC(O[C@H]2[C@H](OC(=O)[C@]34CCC(C)(C)CC3C3=CCC5[C@@]6(C)CC[C@H](OC7O[C@@H](C)[C@H](O[C@@H]8OC[C@@H](O)[C@H](O)[C@H]8O)[C@@H](O)[C@H]7O)C(C)(C)C6CC[C@@]5(C)[C@]3(C)CC4O)OC[C@H](O)[C@H]2O)[C@H](O)[C@H](O)[C@H]1O[C@@H]1O[C@H](CO)[C@@H](O)[C@H](O)[C@H]1O (some centres not stated) has what recorded Kd?
> 4 mM (inactive)

Item `Cc1ccccc1C(=O)Nn1cnnc1` has what recorded Kd?
> 4 mM (inactive)

Item `Cc1cccc(N2C(=O)CC(=O)NC2=O)c1` has what recorded Kd?
> 4 mM (inactive)

Item `O=C(CSc1ncn[nH]1)c1ccccc1` has what recorded Kd?
> 4 mM (inactive)

Item `Cc1ccn(S(=O)(=O)c2ccc(F)cc2)n1` has what recorded Kd?
> 4 mM (inactive)

Item `CCOC(=O)c1c(C)[nH]c2ccc(O)cc12` has what recorded Kd?
> 4 mM (inactive)

Item `NC(=O)CSc1ccc(Br)cc1` has what recorded Kd?
> 4 mM (inactive)

Item `NS(=O)(=O)c1ccc(NC(=O)C2CC2)cc1` has what recorded Kd?
> 4 mM (inactive)
